Test system: 242566-281-R-J2-PDC complex spheroid viability;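 also: spheroids exposed to compounds for 7 days before readout; 100% = DMSO vehicle control wells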
EXPERIMENT_SUMMARY: Anticancer human tumor 242566-281-R-J2-PDC patient-derived pancreatic carcinoma cell line growth inhibition [CLK]
EXPERIMENTAL_CONDITIONS: second compound 1 µM; first compound 3.16 µM; hits give low values
Description: A high-throughput screen of multi-cell type tumor spheroids was designed to identify active combinations of […] and targeted small molecules. Complex spheroids include a stromal component modeled by human endothelial cells (HUVEC) and fibroblasts modeled by human mesenchymal stem cells (MSCs). […] Compounds. […] If the clinical Cmax for an agent had not been determined, the highest concentration tested was 10 microM. […]
MEASURED_QUANTITY: viability, T/C

>>> value_reported("COc1cccc2c1C(=O)c1c(O)c3c(c(O)c1C2=O)CC(O)(C(=O)CO)CC3OC1CC(N)C(O)C(C)O1 (stereo not given) + CNC(=O)c1ccc(Nc2nc(OC3CCCC3)c3c(-c4ccc5nc(C)oc5c4)c[nH]c3n2)c(OC)c1")
"1.6%"
>>> value_reported("O=C(c1cc(Cc2n[nH]c(=O)c3ccccc23)ccc1F)N1CCN(C(=O)C2CC2)CC1 + CNC(=O)c1ccc(Nc2nc(OC3CCCC3)c3c(-c4ccc5nc(C)oc5c4)c[nH]c3n2)c(OC)c1")
"70.5%"
>>> value_reported("CC1(C)CCC(CN2CCN(c3ccc(C(=O)NS(=O)(=O)c4ccc(NCC5CCOCC5)c([N+](=O)[O-])c4)c(Oc4cnc5[nH]ccc5c4)c3)CC2)=C(c2ccc(Cl)cc2)C1 + CN1CCN(c2cc(C(=O)Nc3cc4cc(-c5cnn(C)c5)ccc4cn3)ccn2)CC1")
"5.21%"
>>> value_reported("C=C(F)C(=O)N1CCN(c2nc(OCC3CCCN3C)nc3c2CCN(c2cccc4cccc(Cl)c24)C3)CC1CC#N (stereo not given) + CNC(=O)c1ccc(Nc2nc(OC3CCCC3)c3c(-c4ccc5nc(C)oc5c4)c[nH]c3n2)c(OC)c1")
"52.7%"
>>> value_reported("C=CC(=O)N1CCN(c2nc(=O)n(-c3c(C)ccnc3C(C)C)c3nc(-c4c(O)cccc4F)c(F)cc23)C(C)C1 (stereo not given) + CNC(=O)c1ccc(Nc2nc(OC3CCCC3)c3c(-c4ccc5nc(C)oc5c4)c[nH]c3n2)c(OC)c1")
"70.7%"

// provenance: PubChem BioAssay AID2060622
